Test: physchem
Conditions: buffer
MEASURED_QUANTITY: solubility at 24 h (µM)

# example entries with known answers
O=C(Nc1ccc(S(=O)(=O)c2ccccc2)cc1)[C@@H]1C[C@H]1c1ccncc1 (racemic) | 1
O=C(Nc1ccc(S(=O)(=O)c2cccc(C(F)(F)F)c2)cc1)[C@@H]1C[C@H]1c1cccnc1 (racemic) | 1
CS(=O)(=O)c1cccc(S(=O)(=O)c2ccc(NC(=O)[C@@H]3C[C@H]3c3cccnc3)cc2)c1 (racemic) | 1
CCCn1cc(S(=O)(=O)c2ccc(NC(=O)[C@H]3C[C@@H]3c3cccnc3)cc2)cn1 | 16

(A) O=C(Nc1ccc(S(=O)(=O)C2CCOCC2)cc1)[C@@H]1C[C@H]1c1cccnc1 (racemic)
(B) O=C(NCc1ccc(S(=O)(=O)c2ccccc2)cc1)[C@@H]1C[C@H]1c1cccnc1 (racemic)
(C) N#CN=C(NCCCCCCOc1ccc(Cl)cc1)Nc1ccncc1
(D) CCCn1cc(S(=O)(=O)c2ccc(NC(=O)[C@@H]3C[C@H]3c3cccnc3)cc2)cn1 (racemic)
Data request: Ascending sort, solubility at 24 h. Please reply with the labels ordered as requested. Many thanks.
Data returned: C, B, D, A
(C: 2.2 µM, B: 15 µM, D: 48 µM, A: 93 µM)

(A) O=C(NCCCCCCOc1ccc(Cl)cc1)[C@@H]1C[C@H]1c1cccnc1 (racemic)
(B) O=C(Nc1ccc(S(=O)(=O)c2cc(F)cc(F)c2)cc1)[C@@H]1C[C@H]1c1cccnc1 (racemic)
Data request: Hello, I am sorting some records. Could you say if A or B has the smaller solubility at 24 h value? Reply with the label of the item you choose.
Data returned: B

(A) O=S1(=O)NC(NCc2ccc(S(=O)(=O)N3CCC(N4CCCC4)CC3)cc2)=Nc2ccncc21
(B) O=C(NCc1ccc(S(=O)(=O)c2ccccc2)cc1)[C@@H]1C[C@H]1c1ccncc1 (racemic)
(C) CC(C)(C)OC(=O)N1C[C@@H]2CCN(C(=O)[C@@H]3C[C@H]3c3cccnc3)[C@@H]2C1 (racemic)
Data request: Ordering criterion: solubility at 24 h; begin with the maximum. Please reply with the labels ordered as requested. Many thanks.
Data returned: C, A, B

(A) O=C(Nc1ccc(S(=O)(=O)N2CCOCC2)cc1)[C@@H]1C[C@H]1c1cccnc1 (racemic)
(B) O=C(Nc1ccc(S(=O)(=O)c2ccccc2)cc1)[C@H]1C[C@@H]1c1cccnc1 (single isomer, unassigned; enantiomer 1)
Data request: Form field 'greater solubility at 24 h' accepts A or B ; which applies? Reply with the label of the item you choose.
Data returned: A
